The compounds listed here are annotated with their IC50.
# assayedTarget: Integrin alpha-V/beta-8 (Homo sapiens, UniProt P06756+P26012)
# runDescription: Inhibition of human integrin alphaVbeta8-mediated human SNB19 cell adhesion to recombinant human TGFbeta1 LAP preincubated for 15 to 30 mins followed by 60 min incubation for adhesion by crystal violet staining based cell adhesion assay
quantityName: IC50 (nM)

>  <structure>
N=C(N)Nc1cccc(C(=O)Nc2ccc(C[C@H](NC(=O)[C@@H]3CCCN3S(=O)(=O)c3ccccc3)C(=O)O)cc2)c1

>  <unitDescriptor>
nM

>  <limitSign>
=

>  <observedValue>
40

$$$$
>  <structure>
O=C(CCCNc1ccccn1)Nc1ccc(C[C@H](NC(=O)[C@@H]2CCCN2S(=O)(=O)c2ccccc2)C(=O)O)cc1

>  <unitDescriptor>
nM

>  <limitSign>
=

>  <observedValue>
400

$$$$
>  <structure>
O=C(CCCCNC1=NCCN1)Nc1ccc(C[C@H](NC(=O)[C@@H]2CCCN2S(=O)(=O)c2ccccc2)C(=O)O)cc1

>  <unitDescriptor>
nM

>  <limitSign>
>

>  <observedValue>
10000

$$$$
>  <structure>
N=C(N)NCCCCC(=O)Nc1ccc(C[C@H](NC(=O)[C@@H]2CCCN2S(=O)(=O)c2ccccc2)C(=O)O)cc1

>  <unitDescriptor>
nM

>  <limitSign>
>

>  <observedValue>
10000

$$$$
>  <structure>
N=C(N)NCCCCC(=O)Nc1ccc(C[C@H](NC(=O)[C@@H]2CCCCN2S(=O)(=O)c2ccccc2)C(=O)O)cc1

>  <unitDescriptor>
nM

>  <limitSign>
=

>  <observedValue>
2000

$$$$
>  <structure>
N=C(N)NCCCC(=O)Nc1ccc(C[C@H](NC(=O)[C@@H]2CCCCN2S(=O)(=O)c2ccccc2)C(=O)O)cc1

>  <unitDescriptor>
nM

>  <limitSign>
=

>  <observedValue>
2500

$$$$

* * *

# assayedTarget: Integrin alpha-V/beta-3 (Homo sapiens, UniProt P05106+P06756)
# Sequence (P05106 27-788 limits assumed, one chain of several): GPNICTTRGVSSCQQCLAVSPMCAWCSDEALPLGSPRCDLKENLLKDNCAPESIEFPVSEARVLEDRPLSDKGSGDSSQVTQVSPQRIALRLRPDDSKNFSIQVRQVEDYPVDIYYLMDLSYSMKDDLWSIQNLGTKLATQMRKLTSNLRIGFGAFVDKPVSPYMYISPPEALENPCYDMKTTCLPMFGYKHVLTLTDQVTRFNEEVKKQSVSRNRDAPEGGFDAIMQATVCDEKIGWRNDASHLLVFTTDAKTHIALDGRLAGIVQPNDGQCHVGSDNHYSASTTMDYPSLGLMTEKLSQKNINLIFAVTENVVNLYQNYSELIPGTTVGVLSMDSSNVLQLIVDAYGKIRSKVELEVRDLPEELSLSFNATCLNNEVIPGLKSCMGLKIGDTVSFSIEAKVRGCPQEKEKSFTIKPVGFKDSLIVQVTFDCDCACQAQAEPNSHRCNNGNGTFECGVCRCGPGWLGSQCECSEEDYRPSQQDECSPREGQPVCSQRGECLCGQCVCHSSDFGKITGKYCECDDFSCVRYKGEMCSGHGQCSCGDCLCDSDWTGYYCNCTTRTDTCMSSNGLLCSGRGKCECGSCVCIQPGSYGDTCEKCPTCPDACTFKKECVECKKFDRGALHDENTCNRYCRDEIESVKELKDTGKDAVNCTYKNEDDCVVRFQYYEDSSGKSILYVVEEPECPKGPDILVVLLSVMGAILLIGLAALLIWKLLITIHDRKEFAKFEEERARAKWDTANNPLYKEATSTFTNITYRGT
# runDescription: Inhibition of human integrin alphaVbeta3-mediated human SW480 cell adhesion to fibrinogen preincubated for 15 to 30 mins followed by 60 min incubation for adhesion by crystal violet staining based cell adhesion assay
quantityName: IC50

>  <structure>
N=C(N)Nc1cccc(C(=O)Nc2ccc(C[C@H](NC(=O)[C@@H]3CCCN3S(=O)(=O)c3ccccc3)C(=O)O)cc2)c1

>  <observedValue>
0.16 µM

$$$$
>  <structure>
O=C(CCCCNC1=NCCN1)Nc1ccc(C[C@H](NC(=O)[C@@H]2CCCN2S(=O)(=O)c2ccccc2)C(=O)O)cc1

>  <observedValue>
> 10 µM

$$$$
>  <structure>
N=C(N)NCCCC(=O)Nc1ccc(C[C@H](NC(=O)[C@@H]2CCCCN2S(=O)(=O)c2ccccc2)C(=O)O)cc1

>  <observedValue>
2 µM

$$$$
>  <structure>
O=C(CCCNc1ccccn1)Nc1ccc(C[C@H](NC(=O)[C@@H]2CCCN2S(=O)(=O)c2ccccc2)C(=O)O)cc1

>  <observedValue>
> 10 µM

$$$$
>  <structure>
N=C(N)NCCCCC(=O)Nc1ccc(C[C@H](NC(=O)[C@@H]2CCCCN2S(=O)(=O)c2ccccc2)C(=O)O)cc1

>  <observedValue>
4 µM

$$$$
>  <structure>
N=C(N)NCCCCC(=O)Nc1ccc(C[C@H](NC(=O)[C@@H]2CCCN2S(=O)(=O)c2ccccc2)C(=O)O)cc1

>  <observedValue>
> 10 µM

$$$$

* * *

The molecules listed here are annotated with their IC50.
# assayedTarget: Integrin alpha-V/beta-1 (Homo sapiens, UniProt P05556+P06756)
# Sequence (P05556 21-798 limits assumed, one chain of several): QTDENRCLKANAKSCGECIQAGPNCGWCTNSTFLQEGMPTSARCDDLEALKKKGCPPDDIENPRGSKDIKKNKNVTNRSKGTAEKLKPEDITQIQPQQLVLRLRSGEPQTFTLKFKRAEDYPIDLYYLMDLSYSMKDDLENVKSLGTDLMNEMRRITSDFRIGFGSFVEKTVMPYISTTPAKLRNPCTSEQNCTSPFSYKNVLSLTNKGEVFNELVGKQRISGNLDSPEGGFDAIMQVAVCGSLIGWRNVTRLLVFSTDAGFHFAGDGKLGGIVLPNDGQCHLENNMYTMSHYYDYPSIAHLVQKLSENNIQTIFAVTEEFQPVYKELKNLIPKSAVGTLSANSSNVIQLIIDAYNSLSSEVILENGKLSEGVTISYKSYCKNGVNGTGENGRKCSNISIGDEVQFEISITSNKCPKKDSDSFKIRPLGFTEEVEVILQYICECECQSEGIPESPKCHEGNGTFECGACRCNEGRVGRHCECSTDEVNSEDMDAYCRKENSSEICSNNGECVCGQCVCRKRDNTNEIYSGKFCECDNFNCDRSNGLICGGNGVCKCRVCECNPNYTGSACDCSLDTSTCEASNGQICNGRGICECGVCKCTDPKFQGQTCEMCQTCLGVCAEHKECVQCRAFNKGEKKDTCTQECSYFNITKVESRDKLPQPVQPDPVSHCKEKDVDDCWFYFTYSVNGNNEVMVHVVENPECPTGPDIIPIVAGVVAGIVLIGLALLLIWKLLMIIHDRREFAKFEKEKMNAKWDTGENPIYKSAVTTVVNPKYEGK
# runDescription: Inhibition of integrin alphaVbeta1 (unknown origin)-mediated CHO cell adhesion to fibronectin preincubated for 15 to 30 mins followed by 60 min incubation for adhesion by crystal violet staining based cell adhesion assay
# conditionParameters: read-out: IC50

>  <structure>
CN(C)c1cccc2c(S(=O)(=O)N3CCC[C@H]3C(=O)N[C@@H](Cc3ccc(NC(=O)CCCCNC(=N)N)cc3)C(=O)O)cccc12

>  <IC50 [nM]>
79

$$$$
>  <structure>
Cc1ccc(S(=O)(=O)N2CCC[C@H]2C(=O)N[C@@H](Cc2ccc(NC(=O)CCCCNC(=N)N)cc2)C(=O)O)c2ccccc12

>  <IC50 [nM]>
6300

$$$$
>  <structure>
Cc1cc(F)ccc1S(=O)(=O)N1CCC[C@H]1C(=O)N[C@@H](Cc1ccc(NC(=O)CCCCNC(=N)N)cc1)C(=O)O

>  <IC50 [nM]>
500

$$$$
>  <structure>
Cc1cc(C)cc(S(=O)(=O)N2CCC[C@H]2C(=O)N[C@@H](Cc2ccc(NC(=O)CCCNC(=N)N)cc2)C(=O)O)c1

>  <IC50 [nM]>
790

$$$$

* * *

# assayedTarget: Integrin alpha-5/beta-1 (Homo sapiens, UniProt P05556+P08648)
# Sequence (P05556 21-798 limits assumed): as the sequence (P05556 21-798 limits assumed, one chain of several) above
# Sequence (P08648 42-894 limits assumed): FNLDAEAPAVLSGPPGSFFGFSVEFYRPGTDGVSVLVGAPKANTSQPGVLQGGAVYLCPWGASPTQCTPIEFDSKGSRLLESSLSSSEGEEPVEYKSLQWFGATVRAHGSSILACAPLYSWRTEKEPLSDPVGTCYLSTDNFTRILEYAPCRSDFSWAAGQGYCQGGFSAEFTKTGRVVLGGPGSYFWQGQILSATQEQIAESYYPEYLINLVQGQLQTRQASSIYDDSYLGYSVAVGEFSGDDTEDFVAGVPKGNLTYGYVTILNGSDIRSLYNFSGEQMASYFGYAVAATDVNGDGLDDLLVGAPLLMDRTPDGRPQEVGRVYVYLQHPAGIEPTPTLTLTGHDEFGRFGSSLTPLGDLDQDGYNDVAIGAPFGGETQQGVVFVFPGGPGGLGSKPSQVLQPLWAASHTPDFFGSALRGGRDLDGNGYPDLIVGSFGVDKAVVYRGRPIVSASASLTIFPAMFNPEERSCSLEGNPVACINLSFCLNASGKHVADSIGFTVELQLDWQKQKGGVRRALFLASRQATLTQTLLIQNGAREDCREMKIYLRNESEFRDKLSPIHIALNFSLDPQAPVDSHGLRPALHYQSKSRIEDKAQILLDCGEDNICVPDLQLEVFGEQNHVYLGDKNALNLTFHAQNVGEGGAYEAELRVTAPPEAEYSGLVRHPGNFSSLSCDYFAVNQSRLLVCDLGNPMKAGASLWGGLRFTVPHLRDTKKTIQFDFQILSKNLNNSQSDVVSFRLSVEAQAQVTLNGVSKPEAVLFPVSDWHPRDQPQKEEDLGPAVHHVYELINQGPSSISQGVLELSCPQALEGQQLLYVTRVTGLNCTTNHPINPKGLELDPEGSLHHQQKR
# Sequence (P08648 895-1049 limits assumed): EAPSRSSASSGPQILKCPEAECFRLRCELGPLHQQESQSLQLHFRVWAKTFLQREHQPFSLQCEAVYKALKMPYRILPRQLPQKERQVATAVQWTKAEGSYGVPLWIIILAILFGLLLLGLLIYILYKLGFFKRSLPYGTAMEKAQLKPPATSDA
# runDescription: Inhibition of human integrin alpha5beta1-mediated human SW480 cell adhesion to fibronectin preincubated for 15 to 30 mins followed by 60 min incubation for adhesion by crystal violet staining based cell adhesion assay
pIC50: −log10 of the molar value.
quantityName: pIC50

>  <structure>
O=C(CCCNc1ccccn1)Nc1ccc(C[C@H](NC(=O)[C@@H]2CCCN2S(=O)(=O)c2ccccc2)C(=O)O)cc1

>  <assayedTarget>
Integrin alpha-5/beta-1 (Homo sapiens, UniProt P05556+P08648)

>  <quantityName>
pIC50

>  <observedValue>
< 5.00

$$$$
>  <structure>
O=C(CCCCNC1=NCCN1)Nc1ccc(C[C@H](NC(=O)[C@@H]2CCCN2S(=O)(=O)c2ccccc2)C(=O)O)cc1

>  <assayedTarget>
Integrin alpha-5/beta-1 (Homo sapiens, UniProt P05556+P08648)

>  <quantityName>
pIC50

>  <observedValue>
< 5.00

$$$$
>  <structure>
N=C(N)NCCCCC(=O)Nc1ccc(C[C@H](NC(=O)[C@@H]2CCCN2S(=O)(=O)c2ccccc2)C(=O)O)cc1

>  <assayedTarget>
Integrin alpha-5/beta-1 (Homo sapiens, UniProt P05556+P08648)

>  <quantityName>
pIC50

>  <observedValue>
< 5.00

$$$$
>  <structure>
N=C(N)NCCCCC(=O)Nc1ccc(C[C@H](NC(=O)[C@@H]2CCCCN2S(=O)(=O)c2ccccc2)C(=O)O)cc1

>  <assayedTarget>
Integrin alpha-5/beta-1 (Homo sapiens, UniProt P05556+P08648)

>  <quantityName>
pIC50

>  <observedValue>
5.49

$$$$

* * *

# assayedTarget: Integrin alpha-V/beta-5 (Homo sapiens, UniProt P06756+P18084)
# Sequence (P06756 31-889 limits assumed): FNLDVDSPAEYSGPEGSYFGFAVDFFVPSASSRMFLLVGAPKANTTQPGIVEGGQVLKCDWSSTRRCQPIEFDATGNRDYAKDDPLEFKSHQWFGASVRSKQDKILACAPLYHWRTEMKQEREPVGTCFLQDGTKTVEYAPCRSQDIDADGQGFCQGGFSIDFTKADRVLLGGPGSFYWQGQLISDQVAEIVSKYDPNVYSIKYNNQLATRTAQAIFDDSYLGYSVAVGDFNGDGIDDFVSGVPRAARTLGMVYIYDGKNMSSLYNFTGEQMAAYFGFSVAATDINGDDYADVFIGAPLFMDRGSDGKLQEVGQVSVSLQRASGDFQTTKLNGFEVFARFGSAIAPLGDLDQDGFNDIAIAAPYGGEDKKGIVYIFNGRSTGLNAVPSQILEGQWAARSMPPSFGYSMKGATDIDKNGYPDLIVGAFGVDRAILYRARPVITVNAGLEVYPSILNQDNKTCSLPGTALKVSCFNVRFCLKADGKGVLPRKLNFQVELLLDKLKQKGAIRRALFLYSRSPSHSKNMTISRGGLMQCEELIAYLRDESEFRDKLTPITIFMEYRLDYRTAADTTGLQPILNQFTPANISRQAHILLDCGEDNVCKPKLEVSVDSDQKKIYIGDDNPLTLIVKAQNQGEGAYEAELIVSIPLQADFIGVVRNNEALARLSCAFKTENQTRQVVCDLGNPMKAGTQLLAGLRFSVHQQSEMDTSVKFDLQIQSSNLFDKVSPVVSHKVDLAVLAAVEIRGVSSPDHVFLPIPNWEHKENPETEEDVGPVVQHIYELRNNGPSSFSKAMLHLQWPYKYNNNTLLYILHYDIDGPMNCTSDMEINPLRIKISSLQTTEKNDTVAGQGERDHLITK
# Sequence (P06756 891-1048 limits assumed): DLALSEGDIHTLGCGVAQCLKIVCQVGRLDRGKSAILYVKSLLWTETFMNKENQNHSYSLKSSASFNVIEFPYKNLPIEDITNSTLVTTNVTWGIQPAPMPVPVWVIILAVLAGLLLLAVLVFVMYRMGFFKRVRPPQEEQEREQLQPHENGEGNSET
# Sequence (P18084 24-799 limits assumed): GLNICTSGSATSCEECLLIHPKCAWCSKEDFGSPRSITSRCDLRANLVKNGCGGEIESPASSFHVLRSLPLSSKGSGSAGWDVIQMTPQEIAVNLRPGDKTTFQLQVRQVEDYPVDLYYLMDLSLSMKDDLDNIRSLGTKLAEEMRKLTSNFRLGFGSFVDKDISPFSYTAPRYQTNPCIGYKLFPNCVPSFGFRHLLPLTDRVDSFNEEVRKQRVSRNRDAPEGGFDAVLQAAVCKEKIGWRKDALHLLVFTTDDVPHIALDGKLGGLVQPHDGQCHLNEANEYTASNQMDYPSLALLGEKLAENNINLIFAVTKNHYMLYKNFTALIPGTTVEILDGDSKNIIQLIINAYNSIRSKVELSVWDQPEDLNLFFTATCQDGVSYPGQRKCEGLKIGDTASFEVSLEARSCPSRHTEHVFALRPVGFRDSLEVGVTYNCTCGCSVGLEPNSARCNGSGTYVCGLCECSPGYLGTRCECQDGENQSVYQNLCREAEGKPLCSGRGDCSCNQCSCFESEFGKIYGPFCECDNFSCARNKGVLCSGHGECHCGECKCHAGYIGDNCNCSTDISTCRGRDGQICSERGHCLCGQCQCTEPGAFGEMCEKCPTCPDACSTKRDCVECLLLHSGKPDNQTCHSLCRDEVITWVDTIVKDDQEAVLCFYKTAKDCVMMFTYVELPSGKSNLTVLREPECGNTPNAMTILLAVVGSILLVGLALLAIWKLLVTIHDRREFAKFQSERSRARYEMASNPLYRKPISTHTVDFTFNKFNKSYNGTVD
# runDescription: Inhibition of human wild type integrin alphaVbeta5-mediated human SW480 cell adhesion to vitronectin preincubated for 15 to 30 mins followed by 60 min incubation for adhesion by crystal violet staining based cell adhesion assay
The compounds listed here are annotated with their IC50.
quantityName: IC50

>  <structure>
O=C(CCCNc1ccccn1)Nc1ccc(C[C@H](NC(=O)[C@@H]2CCCN2S(=O)(=O)c2ccccc2)C(=O)O)cc1

>  <quantityName>
IC50

>  <observedValue>
> 10 µM

$$$$
>  <structure>
N=C(N)Nc1cccc(C(=O)Nc2ccc(C[C@H](NC(=O)[C@@H]3CCCN3S(=O)(=O)c3ccccc3)C(=O)O)cc2)c1

>  <quantityName>
IC50

>  <observedValue>
> 10 µM

$$$$
>  <structure>
N=C(N)NCCCCC(=O)Nc1ccc(C[C@H](NC(=O)[C@@H]2CCCN2S(=O)(=O)c2ccccc2)C(=O)O)cc1

>  <quantityName>
IC50

>  <observedValue>
> 10 µM

$$$$
